Ref: patent US8053574B2

Biological target: PI3K γ (Homo sapiens, UniProt P48736)
Sequence (P48736 whole entry): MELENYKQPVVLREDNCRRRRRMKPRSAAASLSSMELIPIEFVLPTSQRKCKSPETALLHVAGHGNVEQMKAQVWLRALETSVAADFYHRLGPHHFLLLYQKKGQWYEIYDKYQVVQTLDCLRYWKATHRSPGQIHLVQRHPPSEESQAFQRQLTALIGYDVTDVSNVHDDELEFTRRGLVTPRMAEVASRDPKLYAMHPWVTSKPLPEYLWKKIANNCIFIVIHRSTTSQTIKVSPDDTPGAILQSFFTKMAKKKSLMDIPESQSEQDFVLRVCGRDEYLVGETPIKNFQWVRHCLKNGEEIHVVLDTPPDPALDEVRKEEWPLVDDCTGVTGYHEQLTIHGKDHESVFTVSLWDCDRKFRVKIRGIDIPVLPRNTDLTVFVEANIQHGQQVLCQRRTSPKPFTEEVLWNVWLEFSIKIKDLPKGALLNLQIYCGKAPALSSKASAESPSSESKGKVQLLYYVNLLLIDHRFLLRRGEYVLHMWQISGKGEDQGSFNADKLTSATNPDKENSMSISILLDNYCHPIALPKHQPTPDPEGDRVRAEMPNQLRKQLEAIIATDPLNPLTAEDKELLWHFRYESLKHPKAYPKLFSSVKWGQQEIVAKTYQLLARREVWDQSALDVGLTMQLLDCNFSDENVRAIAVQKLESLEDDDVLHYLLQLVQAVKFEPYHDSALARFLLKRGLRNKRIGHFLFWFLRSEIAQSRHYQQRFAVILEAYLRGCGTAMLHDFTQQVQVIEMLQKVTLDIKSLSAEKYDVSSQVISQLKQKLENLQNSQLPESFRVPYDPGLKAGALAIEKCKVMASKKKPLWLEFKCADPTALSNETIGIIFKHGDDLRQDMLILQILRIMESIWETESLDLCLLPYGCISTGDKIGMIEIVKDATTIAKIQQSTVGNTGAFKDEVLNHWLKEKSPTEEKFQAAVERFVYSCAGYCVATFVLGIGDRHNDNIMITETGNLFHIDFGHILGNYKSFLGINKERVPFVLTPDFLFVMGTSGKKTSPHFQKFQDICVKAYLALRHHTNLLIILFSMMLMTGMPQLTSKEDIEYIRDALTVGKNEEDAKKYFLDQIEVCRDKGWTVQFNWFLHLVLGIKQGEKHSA
Test: PI3 kinase phosphorylation assay (Biological Method 1), Ki γ
Assay type: biochemical
Conditions: Table 3, compounds of formula XI
reported metric: Ki (µM)

Look over these answered cases.
chemical structure: CCn1nnc(CCNC(=O)Nc2nc3ccc(-c4cncc(C(F)(F)F)c4)cc3s2)n1
reported metric: Ki
measured value: 0.06
//
chemical structure: CCc1nnn(CCNC(=O)Nc2nc3ccc(-c4cncc(C(F)(F)F)c4)cc3s2)n1
reported metric: Ki
measured value: 0.242
//
chemical structure: CCNC(=O)Nc1nc2ccc(-c3ccc(OC)nc3)cc2s1
reported metric: Ki
measured value: 0.406

a: COc1ccc(-c2ccc3nc(NC(=O)NCCN(C)C)sc3c2)cn1
b: COc1ccc(-c2ccc3nc(NC(=O)NCCc4nnn(CCF)n4)sc3c2)cn1
// compare measured Ki between a and b ; output the lower one # answer = label of selected item
b

====

Target: PI3K γ (Homo sapiens, UniProt P48736)
Assay: PI3 kinase phosphorylation assay (Biological Method 1), Ki γ
Assay type: biochemical
Details: Table 1, compounds of formula X
reported metric: Ki (µM)

I: Cc1ccc(-c2ccc3nc(NC(=O)NCCc4nnn(C(C)C)n4)cn3c2)cn1 [drawing 61]
II: CCn1cnc(CCNC(=O)Nc2cn3cc(-c4cncc(C(F)(F)F)c4)ccc3n2)c1 [drawing 59]
// compare measured Ki between I and II ; output the lower one # answer = label of selected item
II
(II: 0.028 µM, I: 0.113 µM)

====

Target: PI3K γ (Homo sapiens)
Test: PI3 kinase phosphorylation assay (Biological Method 1), Ki γ
Assay type: biochemical
Details: Table 3, compounds of formula XI
reported metric: Ki (µM)

compound: O=C(NCCc1nnn(CCF)n1)Nc1nc2ccc(-c3cncc(C(=O)N4CCOCC4)c3)cc2s1 [Example 2-7]
unit string: µM
measured value: 0.0055

A: COc1ccc(-c2ccc3nc(NC(=O)NCCO)sc3c2)cn1 [Example 2-4]
B: CCn1cnc(CCNC(=O)Nc2nc3ccc(-c4cncc(C(F)(F)F)c4)cc3s2)c1 [Example 2-12]
// compare measured Ki between A and B ; output the lower one # answer = label of selected item
A

====

Biological target: PI3K γ (Homo sapiens)
Assay: PI3 kinase phosphorylation assay (Biological Method 1), Ki γ
Type: biochemical
Conditions: Table 1, compounds of formula X
reported metric: Ki (µM)

molecule: CCc1cncc(-c2ccc3nc(NC(=O)NCCc4nnn(C(C)C)n4)cn3c2)c1 [drawing 57]
Ki / µM: 0.025

I: CC(=O)c1cncc(-c2ccc3nc(NC(=O)NCCc4nnn(C(C)C)n4)cn3c2)c1 [drawing 99]
II: CC(C)n1nnc(CCNC(=O)Nc2cn3cc(-c4cncnc4)ccc3n2)n1 [drawing 21]
Between the entries labelled I and II , which has a larger Ki value on record? # answer = label of selected item
II
